- Test system: leukotriene pathway in human whole blood (LTB4)
- experimental.details: Human whole blood assay (LTB4 levels after calcium ionophore A23187 stimulation)
- Format: cell-based
- particulars: Homo sapiens, human whole blood diluted 1:1, A23187 stimulation; Table 6 (additional runs); read-out: Human Whole Blood LTB4 IC50 1:1
Give measured IC50 for each item. Keep answers brief.
Answers are plain numbers, in nM.

Nc1cnc(-c2ccc(-c3ccccc3O)cc2F)cn1 [Example 476]
350
NCCn1cc(-c2ccccc2-c2ccc(-c3cnc(N)cn3)c(F)c2)cn1 [Example 864]
413
Nc1ccc(-c2ccccc2-c2ccc(-c3cnc(N)nc3)c(F)c2)cn1 [Example 865]
192
Nc1cnc(-c2ccc(-c3ccccc3OC3CCS(=O)(=O)CC3)cc2F)cn1 [Example 885]
1060

# input for lookup
Prompt: Identify measured IC50 corresponding to CC(C)(C)NS(=O)(=O)c1ccccc1-c1ccc(-c2cnc(N)c(Cl)n2)c(F)c1 [Example 441]
Response: 6.5
